assayedTarget: TYK2 (Homo sapiens)
Construct: Degradation of TYK2 in cells was quantitatively measured using Meso Scale Discovery (MSD) technology; endogenous in cells; host or cells: OCI-LY10
testSummary: TYK2 MSD degradation in OCI-LY10 cells
Format: cell-based
experimentalParameters: TYK2 degradation in OCI-LY10 cells, 4 to 24 hours incubation, read-out: TYK2 MSD OCI-LY10 Rel-DC50
readout: DC50

Use the examples below as a reference point.
COC1(c2cc(-c3ccc(CN4CCC5(CC4)CCN(C(=O)c4ccc(Cl)c(N6CCC(=O)NC6=O)c4)CC5)cn3)cc(-c3cn(C)c4cnc(NC(C)=O)cc34)n2)CCOC1 (centres unmarked) | < 1 nM
CNc1cc(N2CCc3c(-c4ccc(CN5CCC6(CCN(Cc7ccc(Cl)c(N8CCC(=O)NC8=O)c7)CC6)C(F)(F)C5)cn4)cccc32)nn2c(C(=O)NC3CC3)cnc12 | > 100 nM
CNc1cc(N2CCc3c(CN4CCC(N5CCN(C(=O)c6ccc(Cl)c(N7CCC(=O)NC7=O)c6)CC5)C(F)(F)C4)cccc32)nn2c(C(=O)N[C@@H]3C[C@@H]3F)cnc12 (some centres unmarked) | < 10 nM

Data request: For CNc1cc(N2CCc3c(CC4CCN(C5CCC6(CC5)CCN(C(=O)c5ccc(Cl)c(N7CCC(=O)NC7=O)c5)CC6)CC4)cccc32)nn2c(C(=O)N[C@@H]3C[C@@H]3F)cnc12 , what is its reported DC50?
Data returned: < 10 nM

Data request: Also CNc1cc(N2CCc3c(CN4CCC(N5CCC6(CCN(C(=O)c7ccc(Cl)c(N8CCC(=O)NC8=O)c7)CC6)CC5)C(F)(F)C4)cccc32)nn2c(C(=O)N[C@@H]3C[C@@H]3F)cnc12 (some centres unmarked) , if possible.
Data returned: < 1 nM

Data request: And CNc1cc(N2CCc3c(-c4ccc(CN5CCC6(CCN(C(=O)c7ccc(Cl)c(N8CCC(=O)NC8=O)c7)CC6)C(F)(F)C5)cn4)cccc32)nn2c(C(=O)N[C@H]3CC[C@@H]3C(F)(F)F)cnc12 ?
Data returned: 10 to 100 nM

====

assayedTarget: TYK2 (Homo sapiens, UniProt P29597)
Construct: Degradation of TYK2 in cells was quantitatively measured using Meso Scale Discovery (MSD) technology; endogenous in cells; host or cells: OCI-LY10
Sequence (P29597 whole entry): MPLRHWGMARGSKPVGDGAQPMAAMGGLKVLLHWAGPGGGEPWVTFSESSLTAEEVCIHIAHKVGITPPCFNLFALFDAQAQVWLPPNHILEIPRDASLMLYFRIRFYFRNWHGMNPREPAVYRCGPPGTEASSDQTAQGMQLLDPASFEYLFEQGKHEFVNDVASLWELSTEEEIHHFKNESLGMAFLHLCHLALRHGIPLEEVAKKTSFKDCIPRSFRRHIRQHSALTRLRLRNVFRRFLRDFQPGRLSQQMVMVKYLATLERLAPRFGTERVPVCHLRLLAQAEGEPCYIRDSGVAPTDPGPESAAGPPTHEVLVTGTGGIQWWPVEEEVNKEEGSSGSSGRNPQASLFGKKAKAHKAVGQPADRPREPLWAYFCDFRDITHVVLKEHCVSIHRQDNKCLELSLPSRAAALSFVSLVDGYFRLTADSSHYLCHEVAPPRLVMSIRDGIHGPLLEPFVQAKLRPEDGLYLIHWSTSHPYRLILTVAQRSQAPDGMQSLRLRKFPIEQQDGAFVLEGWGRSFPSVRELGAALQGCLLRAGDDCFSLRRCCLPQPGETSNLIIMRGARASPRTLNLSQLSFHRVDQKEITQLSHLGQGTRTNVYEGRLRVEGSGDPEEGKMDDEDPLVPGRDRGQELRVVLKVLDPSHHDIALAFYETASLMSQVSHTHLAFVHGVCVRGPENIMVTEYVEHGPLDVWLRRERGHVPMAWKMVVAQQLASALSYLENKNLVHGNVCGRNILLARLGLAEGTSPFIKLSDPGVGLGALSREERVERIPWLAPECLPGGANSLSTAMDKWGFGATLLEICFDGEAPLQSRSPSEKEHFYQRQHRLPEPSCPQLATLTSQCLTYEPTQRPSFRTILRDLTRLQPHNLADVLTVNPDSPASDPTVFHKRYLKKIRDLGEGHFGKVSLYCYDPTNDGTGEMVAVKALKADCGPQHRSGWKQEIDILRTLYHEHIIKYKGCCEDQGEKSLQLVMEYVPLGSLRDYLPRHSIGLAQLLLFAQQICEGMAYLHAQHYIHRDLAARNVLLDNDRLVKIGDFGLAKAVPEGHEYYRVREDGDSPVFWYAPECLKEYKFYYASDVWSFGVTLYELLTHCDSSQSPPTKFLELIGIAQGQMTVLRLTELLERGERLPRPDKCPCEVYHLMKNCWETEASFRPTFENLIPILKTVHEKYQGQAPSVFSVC
testSummary: TYK2 MSD degradation in OCI-LY10 cells
Assay type: cell-based
experimentalParameters: TYK2 degradation in OCI-LY10 cells, 4 to 24 hours incubation, read-out: TYK2 MSD OCI-LY10 Rel-DC50
Below, each entry is listed alongside its reported DC50.

CNc1cc(N2CCc3c(-c4ccc(CN5CC6(CCN(C(=O)c7cc(C)c(C)c(N8CCC(=O)NC8=O)c7)CC6(F)F)C5)cn4)cccc32)nn2c(C(=O)N[C@@H]3C[C@@H]3F)cnc12 | < 1 nM

Data request: What value of measured DC50 is listed for CNc1cc(N2CCc3c(-c4ccc(CN5CC6(CCN(C(=O)c7cc(C)c(Cl)c(N8CCC(=O)NC8=O)c7)CC6(F)F)C5)cn4)cccc32)nn2c(C(=O)N[C@H]3CCC[C@@H]3OC)cnc12 ?
Data returned: > 100 nM

Data request: Can you check CNc1cc(N2CCc3c(-c4ncc(CN5CC6(CCN(C(=O)c7cc(F)c(C)c(N8CCC(=O)NC8=O)c7)CC6(F)F)C5)cc4F)cccc32)nn2c(C(=O)N[C@@H]3C[C@@H]3F)cnc12 next?
Data returned: < 1 nM

Data request: Try this compound next: CNc1cc(N2CCc3c(-c4ccc(CN5CCC6(CC5)CCN(c5ccc(C7CCC(=O)NC7=O)c(Cl)c5)CC6)cn4)cccc32)nn2c(C(=O)N[C@@H]3C[C@@H]3F)cnc12 (stereo partly shown)
Data returned: < 10 nM

src = patent US20260125400A1
